biological target: UniProtKB Q60613; assay: Inhibition of A2AR-induced (CGS21680) intracellular cAMP accumulation in lymphocytes; format: cell-based, C57/BL6 mice; set-up: endogenous in cells; host or cells: primary lymphocytes from the spleen of C57/BL6 mice; conditions: 1 µM CGS plus 1 μM compound, 15 min, cAMP ELISA
Sequence (Q60613 whole entry): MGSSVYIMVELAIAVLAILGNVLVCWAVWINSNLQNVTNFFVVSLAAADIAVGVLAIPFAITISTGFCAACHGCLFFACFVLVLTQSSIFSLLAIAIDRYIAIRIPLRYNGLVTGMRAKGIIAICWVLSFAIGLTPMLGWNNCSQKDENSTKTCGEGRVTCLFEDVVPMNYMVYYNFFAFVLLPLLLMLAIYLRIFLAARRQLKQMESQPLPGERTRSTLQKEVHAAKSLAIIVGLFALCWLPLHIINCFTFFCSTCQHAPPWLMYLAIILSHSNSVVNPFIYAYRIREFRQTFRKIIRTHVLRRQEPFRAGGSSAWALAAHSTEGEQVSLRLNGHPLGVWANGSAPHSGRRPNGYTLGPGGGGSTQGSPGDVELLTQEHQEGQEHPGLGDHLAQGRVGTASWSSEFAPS
test readout: Antagonism of CGS-mediated intracellular cAMP accumulation

COCCOCCOCCOCCOCCOCCOCCOCCOc1ccc(N2CCN(CCn3ncc4c3nc(N)n3nc(-c5ccco5)nc43)CC2)cc1 | decreased antagonism
Nc1nc2c(cnn2CCN2CCN(c3ccc(OCCOCCOCCOCCOCCOCCF)cc3)CC2)c2nc(-c3ccco3)nn12 | decreased antagonism

* * *

assay: Log D7.4 shake-flask octanol-water; format: physicochemical; conditions: octanol / 10 mM sodium phosphate pH 7.4, read-out: logD7.4
test readout: logD
Please reply with the value in numeric form only.

Ask: What value of logD has been recorded for this entry: Nc1nc2c(cnn2CCN2CCN(c3ccc(OCCF)cc3)CC2)c2nc(-c3ccco3)nn12 [Compound 27]
Reply: 2.8

Ask: What value of logD has been recorded for this entry: Nc1nc2c(cnn2CCN2CCN(c3ccc(OCCOCCF)cc3)CC2)c2nc(-c3ccco3)nn12 [Compound 28]
Reply: 2.5

Ask: What value of logD has been recorded for this entry: Nc1nc2c(cnn2CCN2CCN(c3ccc(OCCOCCOCCF)cc3)CC2)c2nc(-c3ccco3)nn12 [Compound 29]
Reply: 2.3
